subject of test: T1, human FGFR2b (Kaixia Biotechnology, catalog number FGR-HM1BB) (human, UniProt P21802-3 22-378)
T1 construct: extracellular domain; bought; also called hFGFR2b; human FGFR2b protein
assay name: BLI, antibody on AHC2 sensor
Recorded koff for the following binders

binder: 3C7-VH3-VL3 (antibody, human IgG1, kappa, V domains shown, humanized IgG1) VH: QVQLVQSGAEVKKPGASVKVSCKASGYIFRNYYIHWVKQAPGQGLEWMGAIYPDNGDTSYNQRFKVRATLTADTSTSTVYMELSSLRSEDTAVYYCARAFTYWGQGTTVTVSS VL: DIQMTQSPSSLSASVGDRVTITCGASENIYGALNWYQRKPGKSPKLLIYGATNLADGVPSRFSGSGSGTDYTLTISSLQPEDVATYYCQNVLSTPYTFGGGTKLEIKR
koff: 0.000777 s⁻¹
--
binder: 3C7-VH1-VL3 (antibody, human IgG1, kappa, V domains shown, humanized IgG1) VH: QVQLVQSGAEVKKPGASVKVSCKASGYIFTNYYIHWVRQAPGQGLEWMGAIYPDNGDTSYNQRFKVRATLTADTSTSTVYMELSSLRSEDTAVYYCARAFTYWGQGTTVTVSS VL: DIQMTQSPSSLSASVGDRVTITCGASENIYGALNWYQRKPGKSPKLLIYGATNLADGVPSRFSGSGSGTDYTLTISSLQPEDVATYYCQNVLSTPYTFGGGTKLEIKR
koff: 0.00122 s⁻¹
--
binder: 3H9-VH3-VL0 (antibody, human IgG1, kappa, V domains shown, humanized IgG1) VH: QVQLVQSGAEVKKPGASVKVSCKASGYTFSFYNMHWVKQAPGQGLEWIGLIYPDNGDTSYNQKFKGRATLTADTSTSTVYMELSSLRSEDTAVYYCARGGLDYWGQGTTVTVSS VL: DIQMTQSPSSLSASVGDRVTITCRASENIYSNLAWYQQKPGKAPKLLIYAATNLADGVPSRFSGSGSGTDFTLTISSLQPEDFATYYCQHFWGTPYTFGGGTKVEIKR
koff: 0.000935 s⁻¹
